# study-target: LMPTP-A (Low Molecular Weight Protein Tyrosine Phosphatase-A) enzyme (Homo sapiens (Human), UniProt P24666)
# Sequence (P24666 whole entry): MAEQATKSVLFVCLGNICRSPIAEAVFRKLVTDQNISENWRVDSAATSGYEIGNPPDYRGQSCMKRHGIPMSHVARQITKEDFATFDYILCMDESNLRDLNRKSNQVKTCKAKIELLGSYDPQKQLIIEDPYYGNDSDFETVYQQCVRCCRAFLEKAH
# method-summary: LMPTP primary screening / LMPTP (OMFP) enzyme inhibition assay, fluorescence intensity
# Type: biochemical
# conditions: LMPTP-A, OMFP substrate, method of Example 2; read-out: IC50
assay-metric: IC50

Here is how some compounds turned out for IC50.
compound | IC50
COc1ccc(-c2cc(Nc3cccc(CN4CCCC4)c3)c3c(n2)CCCC3)cc1 | 0.801 to 5 µM
COc1ccc(-c2cc(Nc3ccncc3)c3ccccc3n2)cc1 | 0.801 to 5 µM
NC(=O)c1ccc(-c2cc(N3CCC(Cc4ccc(N)cc4)CC3)c3ccccc3n2)cc1 | > 5 µM

Fill in IC50 for each of the 5 compounds listed.
1. CN1CCCC1CCNc1cc(-c2ccc(C(F)(F)F)cc2C(F)(F)F)nc2ccccc12 (centres unmarked)
2. c1ccc2c(NCCCN3CCCCC3)cc(-c3ccc4sccc4c3)nc2c1
3. FC(F)(F)COc1ccccc1-c1cc(NCCCN2CCCCC2)c2ccccc2n1
4. CC(=O)Nc1cc(C(=O)O)cc(-c2cc(NCCCN3CCCCC3)c3ccccc3n2)c1
5. Fc1cc(F)c(-c2cc(NCCCN3CCCCC3)c3ccccc3n2)cc1F

1. > 5 µM
2. 0.2 to 0.8 µM
3. 0.801 to 5 µM
4. 0.801 to 5 µM
5. 0.801 to 5 µM

###

Answer each item with its documented IC50.
# study-target: LMPTP-A (Low Molecular Weight Protein Tyrosine Phosphatase-A) enzyme (Homo sapiens (Human), UniProt P24666)
# method-summary: LMPTP primary screening / LMPTP (OMFP) enzyme inhibition assay, fluorescence intensity
# Assay type: biochemical
# conditions: LMPTP-A, OMFP substrate, method of Example 2; read-out: IC50

molecule | IC50
CCNC(=O)c1ccc(-c2cc(NCCCN3CCCCC3)c3ccccc3n2)cc1F | 0.801 to 5 µM
COc1ccc(-c2cc(Nc3cccc(C(F)(F)F)c3)c3ccccc3n2)cc1 | > 5 µM
O=C(O)c1cccc(-c2cc(NCCCN3CCCCC3)c3ccccc3n2)c1 | 0.801 to 5 µM
O=S(=O)(c1ccccc1-c1cc(NCCCN2CCCCC2)c2ccccc2n1)N1CCOCC1 | > 5 µM
CS(=O)(=O)c1ccc(-c2cc(NCCCN3CCCCC3)c3ccccc3n2)cc1 | 0.801 to 5 µM
FC(F)(F)c1cc(-c2cc(Nc3cccc(CC4CCN(Cc5ccccc5)CC4)c3)c3ccccc3n2)cc(C(F)(F)F)c1 | > 5 µM
COc1ccc(-c2cc(NCCCN3CCCCC3)c3cc(Cl)ccc3n2)cc1 | > 5 µM
COc1ccc(-c2cc(NCCCN3CCCCC3)c3ccccc3n2)cc1 [Compound D1] | 0.801 to 5 µM

Fill in IC50 for each of the 4 molecules listed.
1. CN(C)c1cc(-c2cccs2)nc2ccccc12
2. Cc1ccccc1-c1cc(NCCCN2CCCCC2)c2ccccc2n1
3. CN(C)Cc1cccc(Nc2cc(-c3ccc(C(N)=O)cc3)nc3ccccc23)c1
4. COc1ccc(-c2cc(NCc3cccc(OC)c3)c3ccccc3n2)cc1

["> 5 µM", "0.801 to 5 µM", "> 5 µM", "0.801 to 5 µM"]

Fill in IC50 for each of the 6 molecules listed.
1. COc1ccc(-c2cc(NCCCN3CCCCC3)c3ccc(OC)cc3n2)cc1
2. COc1ccc(Cl)cc1-c1cc(NCCCN2CCCCC2)c2ccccc2n1
3. CC(C)CNC(=O)c1ccc(-c2cc(NCCCN3CCCCC3)c3ccccc3n2)cc1
4. COc1ccc(-c2cc(NCCc3ccc(Cl)cc3)c3ccccc3n2)cc1
5. COc1ccc(-c2cc(Nc3cccc(CN4CCS(=O)(=O)CC4)c3)c3ccccc3n2)cc1
6. COc1ccc(-c2cc(Nc3ccc(CC4CCNCC4)cc3)c3ccccc3n2)cc1

["> 5 µM", "0.801 to 5 µM", "0.801 to 5 µM", "0.801 to 5 µM", "0.801 to 5 µM", "0.801 to 5 µM"]

###

# method-summary: rodent pharmacokinetics in male C57BL/6 mice (IV, PO, IP)
# Format: in vivo, mouse
# conditions: mouse, in vivo; male C57BL/6 mice, PO, 29.6 mg/kg
assay-metric: Tmax

Tmax reported for this molecule COc1ccc(-c2cc(NCCCN3CCCCC3)c3ccccc3n2)cc1 [Compound D1] : 3.33 h

###

Answer each item with its documented IC50.
# study-target: LMPTP-A (Low Molecular Weight Protein Tyrosine Phosphatase-A) enzyme (Homo sapiens (Human))
# method-summary: LMPTP primary screening / LMPTP (OMFP) enzyme inhibition assay, fluorescence intensity
# Assay type: biochemical
# conditions: LMPTP-A, OMFP substrate, method of Example 2; read-out: IC50
# Procedure: This assay attempts to identify inhibitors of the LMPTP-A (Low Molecular Weight Protein Tyrosine Phosphatase-A) enzyme. It is run in 1536-well format and is measured via fluorescence intensity. […] Assay Procedure • 1. […] Read plates on PerkinElmer Viewlux using a FI protocol.

Here is how some compounds turned out for IC50.
compound | IC50
NC(=O)c1ccc(-c2cc(NCCCN3CCCCC3)c3ccccc3n2)cc1Cl [Compound I82] | 0.2 to 0.8 µM
NC(=O)c1ccc(-c2cc(Nc3ccc(CN4CCCCC4)cc3)c3ccccc3n2)cc1 [Compound I6] | > 5 µM
O=C(c1ccc(-c2cc(NCCCN3CCCCC3)c3ccccc3n2)cc1)N1CCCCC1 [Compound I194] | 0.801 to 5 µM
FC(F)(F)c1cc(-c2cc(Nc3cccc(CC4CCNCC4)c3)c3ccccc3n2)cc(C(F)(F)F)c1 [Compound I52] | > 5 µM
O=C(NCC1CCCO1)c1ccc(-c2cc(NCCCN3CCCCC3)c3ccccc3n2)cc1 (centres unmarked) [Compound I64] | 0.801 to 5 µM

Fill in IC50 for each of the 3 compounds listed.
1. COc1ccc(-c2cc(Nc3ccc(CN(C)C)cc3)c3ccccc3n2)cc1 [Compound I26]
2. Clc1ccc(-c2cc(NCCCN3CCCCC3)c3ccccc3n2)s1 [Compound I142]
3. O=C(NC1CC1)c1ccc(-c2cc(NCCCN3CCCCC3)c3ccccc3n2)cc1 [Compound I271]

1: 0.801 to 5 µM; 2: 0.801 to 5 µM; 3: 0.801 to 5 µM

###

# method-summary: aqueous solubility (buffer pH 5.0-7.4, PBS)
# Type: physicochemical
# conditions: Pion's buffer, pH 6.2, aqueous buffer
assay-metric: solubility

solubility reported for this molecule COc1ccc(-c2cc(NCCCN3CCCCC3)c3ccccc3n2)cc1 [Compound D1] : > 0.112 mg/mL

###

# method-summary: rodent pharmacokinetics in male C57BL/6 mice (IV, PO, IP)
# Assay type: in vivo, mouse
# conditions: mouse, in vivo; male C57BL/6 mice, IP, 9.69 mg/kg
assay-metric: AUC(0-inf) (µg·h/mL)
Numbers only, in µg·h/mL.

AUC(0-inf) reported for this molecule COc1ccc(-c2cc(NCCCN3CCCCC3)c3ccccc3n2)cc1 [Compound D1] : 4.52

###

# study-target: LMPTP-A (Low Molecular Weight Protein Tyrosine Phosphatase-A) enzyme (Homo sapiens (Human))
# method-summary: LMPTP primary screening / LMPTP (OMFP) enzyme inhibition assay, fluorescence intensity
# Assay type: biochemical
# conditions: LMPTP-A, OMFP substrate, method of Example 2; read-out: IC50
Answer each item with its documented IC50.

compound | measurement
COc1ccc(-c2cc(NCc3ccc(CN4CCCCC4)cc3)c3ccccc3n2)cc1 | 801 to 5000 nM
CCCCOc1ncccc1-c1cc(NCCCN2CCCCC2)c2ccccc2n1 | 801 to 5000 nM
CC(=O)Nc1ccccc1-c1cc(NCCCN2CCCCC2)c2ccccc2n1 | > 5000 nM
N#CCCNC(=O)c1ccc(-c2cc(NCCCN3CCCCC3)c3ccccc3n2)cc1 [Compound I265] | 200 to 800 nM
Fc1ccc(Nc2cc(-c3ccccc3C(F)(F)F)nc3ccccc23)cc1 | 801 to 5000 nM
c1c[nH]c(-c2cc(NCCCN3CCCCC3)c3ccccc3n2)c1 | 801 to 5000 nM

Fill in IC50 for each of the 2 compounds listed.
1. CCN(CC)CCCNc1cc(-c2ccc(C(N)=O)cc2)nc2ccccc12
2. CCN1CCC(Cc2ccc(Nc3cc(-c4ccc(OC)cc4)nc4ccccc34)cc2)CC1

["> 5000 nM", "801 to 5000 nM"]

IC50 reported for this compound CCOC(=O)c1cccc(-c2cc(NCCCN3CCCCC3)c3ccccc3n2)c1 : 801 to 5000 nM

###

# method-summary: rodent pharmacokinetics in male C57BL/6 mice (IV, PO, IP)
# Assay type: in vivo, mouse
# conditions: male, C57BL/6, mouse, in vivo, iv, […]; read-out: Vdss
assay-metric: Vd (L/kg)
Numbers only, in L/kg.

Vd reported for this compound COc1ccc(-c2cc(NCCCN3CCCCC3)c3ccccc3n2)cc1 [Compound D1] : 83.1
